kd var/kd wt values, listed per item
tested target: T1, human TGFβ1 (human, UniProt P01137 279-390)
T1 construct: also called TGFβ1 homodimer
T1 sequence (P01137 279-390 limits assumed): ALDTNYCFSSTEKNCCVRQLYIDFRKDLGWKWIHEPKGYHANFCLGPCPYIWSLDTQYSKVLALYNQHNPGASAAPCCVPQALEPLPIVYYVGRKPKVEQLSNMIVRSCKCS
experimental protocol: Biacore off-rate vs wt GC1008, 50 nM
API note: the answer field is a bare number with no unit suffix.

# binder, kd var/kd wt
data = [
    ("Y27W (antibody, V domains shown, GC1008 IgG4 variant) VH: QVQLVQSGAEVKKPGSSVKVSCKASGWTFSSNVISWVRQAPGQGLEWMGGVIPIVDIANYAQRFKGRVTITADESTSTTYMELSSLRSEDTAVYYCASTLGLVLDAMDYWGQGTLVTVSS VL: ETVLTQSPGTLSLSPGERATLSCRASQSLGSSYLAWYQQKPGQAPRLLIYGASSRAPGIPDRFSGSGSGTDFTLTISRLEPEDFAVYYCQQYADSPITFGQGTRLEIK", 1.4),
    ("E74Y (antibody, V domains shown, GC1008 IgG4 variant) VH: QVQLVQSGAEVKKPGSSVKVSCKASGYTFSSNVISWVRQAPGQGLEWMGGVIPIVDIANYAQRFKGRVTITADYSTSTTYMELSSLRSEDTAVYYCASTLGLVLDAMDYWGQGTLVTVSS VL: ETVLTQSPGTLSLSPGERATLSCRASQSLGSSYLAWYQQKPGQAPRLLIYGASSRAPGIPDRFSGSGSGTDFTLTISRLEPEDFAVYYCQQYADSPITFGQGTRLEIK", 0.7),
]

Lab note: next binder to report on.
Y27R (antibody, V domains shown, GC1008 IgG4 variant) VH: QVQLVQSGAEVKKPGSSVKVSCKASGRTFSSNVISWVRQAPGQGLEWMGGVIPIVDIANYAQRFKGRVTITADESTSTTYMELSSLRSEDTAVYYCASTLGLVLDAMDYWGQGTLVTVSS VL: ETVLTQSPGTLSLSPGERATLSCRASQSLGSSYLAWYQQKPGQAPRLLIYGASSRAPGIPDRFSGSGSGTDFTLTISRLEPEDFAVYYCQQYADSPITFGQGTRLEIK yielded kd var/kd wt of 2.3
